System: Escherichia coli TOP10
Test: shrunken log2 fold change of peptide-encoding DNA abundance (4.5 h post-induction vs induction); higher = less antimicrobial activity (less host growth inhibition)
Conditions: time post-induction: 4.5 h; library: site-saturation at positions 5, 18, 19, 20
OBSERVED PROPERTY: shrunken log2 fold change

{"SEQ": "RRIRERPPRLPRPRPRPWEWPRP", "RECORDED VALUE": 0.0992}
{"SEQ": "RRIRNRPPRLPRPRPRPWHQPRP", "RECORDED VALUE": -0.094}
{"SEQ": "RRIRRRPPRLPRPRPRPYMKPRP", "RECORDED VALUE": -0.0984}
{"SEQ": "RRIRCRPPRLPRPRPRPRNPPRP", "RECORDED VALUE": 0.176}
{"SEQ": "RRIRWRPPRLPRPRPRPERVPRP", "RECORDED VALUE": 0.447}
{"SEQ": "RRIRFRPPRLPRPRPRPPAVPRP", "RECORDED VALUE": 0.713}
{"SEQ": "RRIRGRPPRLPRPRPRPDKTPRP", "RECORDED VALUE": 0.104}
{"SEQ": "RRIRCRPPRLPRPRPRPYYTPRP", "RECORDED VALUE": 0.00417}
{"SEQ": "RRIRNRPPRLPRPRPRPVQNPRP", "RECORDED VALUE": -0.0269}

* * *

Test system: Escherichia coli TOP10;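 note: peptides expressed intracellularly from a pBAD plasmid library in pooled LB shake-flask culture, induced with 0.3% L-arabinose, DNA abundance read by NGS, three biological replicates, DESeq2 with apeglm shrinkage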
Experiment: shrunken log2 fold change of peptide-encoding DNA abundance (4.5 h post-induction vs induction); higher = less antimicrobial activity (less host growth inhibition)
Details: time post-induction: 4.5 h; library: site-saturation at positions 5, 18, 19, 20
1.0 means recorded shrunken log2 fold change is -0.08 or above; 0.0 means it is below -0.08.

{"SEQ": "RRIRNRPPRLPRPRPRPGNSPRP", "LABEL CLASS": 1.0}
{"SEQ": "RRIRWRPPRLPRPRPRPRYDPRP", "LABEL CLASS": 0.0}
{"SEQ": "RRIRWRPPRLPRPRPRPEFWPRP", "LABEL CLASS": 1.0}
{"SEQ": "RRIRFRPPRLPRPRPRPTDIPRP", "LABEL CLASS": 1.0}
{"SEQ": "RRIRYRPPRLPRPRPRPSIGPRP", "LABEL CLASS": 1.0}
{"SEQ": "RRIRHRPPRLPRPRPRPTCTPRP", "LABEL CLASS": 1.0}
{"SEQ": "RRIRLRPPRLPRPRPRPKNHPRP", "LABEL CLASS": 0.0}
{"SEQ": "RRIRRRPPRLPRPRPRPFFMPRP", "LABEL CLASS": 1.0}
{"SEQ": "RRIRNRPPRLPRPRPRPKEDPRP", "LABEL CLASS": 1.0}
{"SEQ": "RRIRFRPPRLPRPRPRPGCQPRP", "LABEL CLASS": 0.0}
{"SEQ": "RRIRYRPPRLPRPRPRPFARPRP", "LABEL CLASS": 0.0}
{"SEQ": "RRIRVRPPRLPRPRPRPFCDPRP", "LABEL CLASS": 0.0}
{"SEQ": "RRIRWRPPRLPRPRPRPCFMPRP", "LABEL CLASS": 0.0}
{"SEQ": "RRIRERPPRLPRPRPRPMWWPRP", "LABEL CLASS": 0.0}
{"SEQ": "RRIRMRPPRLPRPRPRPVMWPRP", "LABEL CLASS": 1.0}
{"SEQ": "RRIRPRPPRLPRPRPRPHECPRP", "LABEL CLASS": 0.0}
{"SEQ": "RRIRLRPPRLPRPRPRPCWSPRP", "LABEL CLASS": 0.0}
{"SEQ": "RRIRWRPPRLPRPRPRPSKYPRP", "LABEL CLASS": 0.0}
{"SEQ": "RRIRERPPRLPRPRPRPIDHPRP", "LABEL CLASS": 0.0}
{"SEQ": "RRIRTRPPRLPRPRPRPIGMPRP", "LABEL CLASS": 1.0}
{"SEQ": "RRIRFRPPRLPRPRPRPKRTPRP", "LABEL CLASS": 1.0}
{"SEQ": "RRIRRRPPRLPRPRPRPSIMPRP", "LABEL CLASS": 0.0}
{"SEQ": "RRIRHRPPRLPRPRPRPRNEPRP", "LABEL CLASS": 0.0}
{"SEQ": "RRIRSRPPRLPRPRPRPRYMPRP", "LABEL CLASS": 0.0}
{"SEQ": "RRIRLRPPRLPRPRPRPGLPPRP", "LABEL CLASS": 1.0}
{"SEQ": "RRIRYRPPRLPRPRPRPCIIPRP", "LABEL CLASS": 0.0}
